experiment.summary: MTT cell viability assay, BEAS-2B normal cells
Assay type: cell-based
settings: human, BEAS-2B normal bronchial epithelial cells, 24 h incubation, read-out: Cytotoxicity EC50, BEAS 2B
EC50 at 24 h by entry:
Express your answer in µM, writing the number without its unit.

[
  {
    "smiles.repr": "CC(=O)OC[C@H]1O[C@@H](SSc2sc(N)nc2-c2ccc(Br)cc2)[C@H](OC(C)=O)[C@@H](OC(C)=O)[C@@H]1OC(C)=O",
    "measured.property": "EC50 at 24 h",
    "unit.abbrev": "µM",
    "recorded.value": 15.5
  }
]

*Q* Name the recorded EC50 at 24 h for CC(=O)OC[C@H]1O[C@@H](SSc2sc(N)nc2-c2ccc(Cl)cc2)[C@H](OC(C)=O)[C@@H](OC(C)=O)[C@@H]1OC(C)=O .
*A* 14.1

Value source: paper PMC11943723
